Ref: PubChem BioAssay

# Test Summary: viability gain of MRP-1-high H69AR cells under doxorubicin, pilot screen, MRP-1 activator project, CellTiter-Glo, duplicate (AID 807);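 further: compound pretreatment 18-22 h then 72 h combined with doxorubicin; 0% = doxorubicin alone and 100% = vehicle without doxorubicin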
# Settings: H69AR viability with doxorubicin, CellTiter-Glo luminescence; at 10 µM; stronger effect = higher value
Give viability increase for every item shown.
Answers are plain numbers, in %.

Consider the worked cases shown below.
Cn1c(Cn2c(=O)sc3ccccc32)nnc1SCC(=O)Nc1ccc(Cl)cc1; -3.25
N=c1oc2ccccc2cc1-c1nc2ccccc2c(=O)[nH]1; 2.52
CCOc1ccccc1Nc1nnc(Cc2ccccc2Cl)c(=O)[nH]1; -2.83
Cc1ccc(C(=O)CSc2nnc(-c3cccs3)n2C)o1; -3.5
CCOC(=O)c1c(-c2ccccc2)c(C(C)=O)c(=O)n(C)c1C; -3.81

Would you mind giving viability increase for every molecule in the list below?
1. CCN1C(=O)c2ccc(-c3nc4ccccc4c(=O)o3)cc2C1=O
2. Cc1c(C(=O)NCc2ccccc2)oc2ccc(S(=O)(=O)N3CCCC3)cc12
3. CCOC(=O)CC1C(=O)NCCN1Cc1cccc(C(F)(F)F)c1 (stereo unspecified)
4. CCC(=O)c1ccc(OCC(=O)Nc2nn3cnnc3s2)cc1
5. O=C(CSc1ncnc2c1oc1ccccc12)NCc1ccc(F)cc1

1. -0.05
2. -2.64
3. -1.61
4. 1
5. -3.33

// returns reported viability increase for input CC(=O)N1CSCC1C(=O)N1CCN(c2ccc(N3CCOCC3)nn2)CC1 (stereo unspecified) -0.66

###

Answer each item with its documented RAM network inhibition.
# Test Summary: RAM signaling pathway blockade in yeast – S. cerevisiae, Pdr1DBD-CYC8 efflux-inhibited sensitized strain, primary screen (AID 1298);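 further: 0% = DMSO untreated cells without growth and 100% = 10 µM 1-NA-PP1 full growth; higher means more yeast growth rescued from 5-FOA killing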
# Settings: S. cerevisiae cbk1-as DSE1-URA3 strain, 5-FOA growth OD615, 2 d; at 50 µM; stronger effect = higher value
Answers are plain numbers, in %.

CCC(Cc1ccccc1)NC(=O)CN1C(=O)CSc2ncccc21 (stereo unspecified); -0.97
COc1ccc(-c2cn3c(C)c(C(=O)N4CCN(c5ccccc5)CC4)sc3n2)cc1; 0.88
COc1ccc(O)c(-c2[nH]ncc2C(=O)c2ccccc2)c1; 4.35
CC(=O)c1ccc(OCC(O)CN2C(C)(C)CC(O)CC2(C)C)cc1 (stereo unspecified); 7.12

Give RAM network inhibition for all molecules that follow.
1. O=C(C1CCN(S(=O)(=O)c2ccc(F)cc2)CC1)N1CCOCC1
2. O=c1sc(N2CCN(c3ccccc3F)CC2)nc2ccsc12
3. C=C(C)Cn1c(NCCC)nc2c1c(=O)n(C)c(=O)n2C

1: 1.75; 2: 7.46; 3: 1.36

###

Task for the reader: assign each of the following compounds its reported growth inhibition.
# Test Summary: Restrictive medium S. cerevisiae growth inhibition, OD615, pilot screen of yeast lifespan reduction project, restrictive growth control (AID 706);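 further: modified DeaD lifespan yeast strain shifted to restrictive glucose medium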
# Settings: OD615, 48 h, at 10 µM, stronger effect = higher value
Numbers only, in %.

These solved cases illustrate the format of a correct answer.
Cc1ccc(-c2n[nH]c(=S)n2C)cc1; 11.2
CC1CCc2nn(CC(=O)NC3CCCC3)cc2C1 (centres undefined); 10.9
Cc1c(C(=O)NCc2cccnc2)oc2ccc(S(=O)(=O)N3CC(C)CC(C)C3)cc12 (centres undefined); 16.4

Below are 5 compounds. Give each one its growth inhibition.
1. O=C1CC(C(=O)Nc2nccs2)C(c2ccccc2)O1 (centres undefined)
2. Cc1cccc(C(=O)N2CCN(Cc3ccc4c(c3)OCO4)CC2)c1
3. CN(C)CCCCCNCCCNC(=O)/C=N\O
4. Cn1c(=O)c2c(nc(SCCN3CCOCC3)n2Cc2ccc(Cl)cc2)n(C)c1=O
5. CC(C)Nc1ncnc2c1cnn2-c1ccc(Cl)cc1

-14.8
-4.2
3.62
16.6
-5.25

The following compounds each have a reported value; give each one's growth inhibition.
1. CCCCN(C)Cc1c(C)[nH]c2ccc(OCC)cc2c1=O
2. COC(=O)c1ccccc1NC(=O)CS(=O)(=O)Cc1nc(-c2ccc(C)cc2)oc1C
3. Cn1c(=O)c2c(nc(CN3CCN(Cc4ccccc4)CC3)n2Cc2ccccc2)n(C)c1=O
4. COCCCNC(=O)Cn1ncc2ccsc2c1=O
5. CC(CN(C)Cc1ccccc1)OC(=O)C1COc2ccccc2O1 (centres undefined)

[-20, -21.8, -11.8, 3.33, 6.59]

Go through the items and report each one's growth inhibition.
1. C(=N\n1cnnc1)/C1CCCCC1
2. Cc1ccc(N2CCN(S(=O)(=O)c3ccc(F)cc3)CC2)c(C)c1
3. Cc1cc(N2CCCc3ccccc32)n2ncnc2n1
4. c1ccc(-c2cnnc(N3CCCCC3)n2)cc1
5. Nn1c(SCc2nc3ccccc3[nH]2)nnc1-c1cccnc1
6. COc1ccccc1N1CCN(C(=O)COc2ccc(C)cc2Br)CC1

[-1.24, -15.2, -1.67, 8.84, 14.9, -9.51]

I need growth inhibition for every entry listed below, if you could help.
1. CCc1cccc(NC(=O)CS(=O)Cc2nc(-c3ccc(C)cc3)oc2C)c1 (centres undefined)
2. CCOC(=O)Cn1c(=O)oc2cc(S(=O)(=O)Nc3c(C)cc(C)cc3C)ccc21
3. COc1cccc(C2CC(=O)N3CN(c4cccc(Cl)c4C)CSC3=C2C#N)c1OC (centres undefined)
4. O=C(Nc1cccc(Br)c1)c1cc2ccccc2o1
5. NC(=O)C1(N2CCCCC2)CCN(C(=O)c2cccs2)CC1

1: 24.4; 2: -14.1; 3: 19.4; 4: -7.8; 5: -16.6
